The reported measurements were obtained from the supplement of paper PMC9433436.

Biological target: E. coli RNase P holoenzyme (M1 P RNA + rnpA protein)
Sequence: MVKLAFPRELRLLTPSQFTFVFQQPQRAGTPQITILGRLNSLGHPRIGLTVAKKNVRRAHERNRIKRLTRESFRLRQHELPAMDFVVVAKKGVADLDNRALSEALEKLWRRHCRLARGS
Assay: relative kcat/Km (krel) vs genomic leader AAAGAU (relative (reference leader = 1)); higher = faster RNase P cleavage
Conditions: fraction of substrate reacted: ~9-10% (9.79% repeat 1, 9.1% repeat 2)
Over roughly 4,100 sequences, “relative kcat/Km (krel) vs genomic leader AAAGAU” has its median near 1.7; the highest 2% begin near 6.5. Only a selection was taken, and the highest values are over-represented in it overall.
Classify as follows. Reported relative kcat/Km greater than or equal to 2: true (1). Reported relative kcat/Km below: false (0).

sequenceChain: GGCAAC
class: true (1)

sequenceChain: AGCAAT
class: true (1)

sequenceChain: CCCAAT
class: true (1)

sequenceChain: CTCAAT
class: true (1)

sequenceChain: AATACA
class: false (0)

sequenceChain: CCGCGC
class: true (1)

sequenceChain: TGATTC
class: false (0)

sequenceChain: GCTATC
class: false (0)

sequenceChain: GTGAAC
class: false (0)

###

This section presents sequences with their documented relative kcat/Km values.
Target: E. coli RNase P holoenzyme (M1 P RNA + rnpA protein)
Sequence: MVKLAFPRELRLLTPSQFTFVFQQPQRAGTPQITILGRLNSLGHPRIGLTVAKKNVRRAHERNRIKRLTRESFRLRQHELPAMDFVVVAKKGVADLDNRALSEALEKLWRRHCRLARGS
Experiment: relative kcat/Km (krel) vs genomic leader AAAGAU (relative (reference leader = 1)); higher = faster RNase P cleavage
Conditions: fraction of substrate reacted: ~26-29% (28.66% repeat 1, 26.4% repeat 2)
In all, about 4,100 sequences were measured (“relative kcat/Km (krel) vs genomic leader AAAGAU”: median about 1.7, highest 2% from about 6.5 on). Only a selection was taken, and the highest values are over-represented in it overall.

sequenceChain: TATAAT
relative kcat/Km: 5.41
--
sequenceChain: TTCCAC
relative kcat/Km: 9.46
--
sequenceChain: CTCCCT
relative kcat/Km: 4.86
--
sequenceChain: AGTACT
relative kcat/Km: 3.74
--
sequenceChain: ACTCGT
relative kcat/Km: 2.02
--
sequenceChain: TTCCAG
relative kcat/Km: 5.49
--
sequenceChain: ATCCGA
relative kcat/Km: 7.19
--
sequenceChain: ATGAAG
relative kcat/Km: 1.85
--
sequenceChain: ATCCCA
relative kcat/Km: 3.52
--
sequenceChain: GTCCCT
relative kcat/Km: 5.58
--
sequenceChain: CCTCTG
relative kcat/Km: 1.47
--
sequenceChain: ATTCCT
relative kcat/Km: 2.93
--
sequenceChain: ATCCTA
relative kcat/Km: 4.55
--
sequenceChain: CTCCGC
relative kcat/Km: 6.8
--
sequenceChain: CTCCGA
relative kcat/Km: 8.07
--
sequenceChain: CCCACT
relative kcat/Km: 2.79
--
sequenceChain: TGCCAA
relative kcat/Km: 4.09
--
sequenceChain: CTCCGT
relative kcat/Km: 2.01
--
sequenceChain: GTCCAT
relative kcat/Km: 9.1
--
sequenceChain: GTCCGG
relative kcat/Km: 1.17
--
sequenceChain: GGATCA
relative kcat/Km: 1.53
--
sequenceChain: AACGCG
relative kcat/Km: 1.47
--
sequenceChain: TTGCGG
relative kcat/Km: 1.14
